System: HOP-62
protocol-description: NCI tumour cell line growth inhibition, 48 h
Active and inactive are the calls of the source. Cut-off read from the data, not from the text of the source: active = GI50 up to about 1.1 µM and inactive = higher.
Answer with one of the outcomes given here: t (active), f (inactive)

molecule	assigned-label
COc1ccc(C2CC(C)=Nc3c(O)nc(S)nc3N2)cc1 (stereo not drawn)	f

Task: What was the test verdict on `OC/C=C/[C@H](OCc1ccccc1)[C@H](/C=C/CO)OCc1ccccc1` ?
Output: f

Task: What was the test verdict on `COc1ccc(S(=O)(=O)N/N=C/CN2C(=O)c3ccccc3C2=O)cc1OC` ?
Output: f

Task: What was the test verdict on CC(C)/C=C1\CCC(CN2CCOCC2)C1=O (stereo not drawn) ?
Output: f

Task: What was the test verdict on `C=C(Br)CN(C#N)CC(=C)Br` ?
Output: f

Task: What was the test verdict on COC(=O)N/N=C(/c1nc2ccc([N+](=O)[O-])cc2nc1O)C(O)c1ccc(OC)c(OC)c1 (stereo not drawn) ?
Output: f
